# credit: ChEMBL document CHEMBL1138395

- assay_comment: AUC in monkey at 2.5 mg/kg, po
- Assay type: ADME, organism-based, Macaca mulatta
- Set-up: dose 2.5 mg/kg, route oral
- condition_summary: rhesus monkey, plasma

compound_structure: CC(C)(Oc1ccc(F)cc1Cl)C(=O)N[C@H]1C2CC3CC1C[C@](S(C)(=O)=O)(C3)C2
AUC [ng·h/mL]: 6810

* * *

- assay_comment: Volume of distribution at steady state in mouse at 10 mg/kg
- Type: ADME, organism-based
- Parameters: dose 10 mg/kg
- condition_summary: in vivo, read-out: Vdss
Entries and their Vd

compound_structure: CC(C)(Oc1ccc(F)cc1Cl)C(=O)N[C@H]1C2CC3CC1C[C@](S(C)(=O)=O)(C3)C2
Vd / L/kg: 1.5
--
compound_structure: CC(C)(Oc1ccc(F)cc1Cl)C(=O)N[C@H]1C2CC3CC1C[C@](S(N)(=O)=O)(C3)C2
Vd / L/kg: 2.6

* * *

- assay_comment: Metabolic stability in mouse liver microsomes assessed as intrinsic clearance
- Assay type: ADME, Microsome

compound_structure: CC(C)(Oc1ccc(F)cc1Cl)C(=O)N[C@H]1C2CC3CC1C[C@](S(C)(=O)=O)(C3)C2
unit_label: mL/min/kg
CLint scaled: 100

* * *

- assay_comment: Metabolic stability in human liver microsomes assessed as intrinsic clearance
- Type: ADME, Microsome
measured_endpoint: CLint scaled (L/h/kg)

compound_structure: CC(C)(Oc1ccc(F)cc1Cl)C(=O)N[C@H]1C2CC3CC1C[C@](S(C)(=O)=O)(C3)C2
measured_endpoint: CLint scaled
unit_label: L/h/kg
number: 1.6

* * *

Entries and their IC50
Target protein (sequence): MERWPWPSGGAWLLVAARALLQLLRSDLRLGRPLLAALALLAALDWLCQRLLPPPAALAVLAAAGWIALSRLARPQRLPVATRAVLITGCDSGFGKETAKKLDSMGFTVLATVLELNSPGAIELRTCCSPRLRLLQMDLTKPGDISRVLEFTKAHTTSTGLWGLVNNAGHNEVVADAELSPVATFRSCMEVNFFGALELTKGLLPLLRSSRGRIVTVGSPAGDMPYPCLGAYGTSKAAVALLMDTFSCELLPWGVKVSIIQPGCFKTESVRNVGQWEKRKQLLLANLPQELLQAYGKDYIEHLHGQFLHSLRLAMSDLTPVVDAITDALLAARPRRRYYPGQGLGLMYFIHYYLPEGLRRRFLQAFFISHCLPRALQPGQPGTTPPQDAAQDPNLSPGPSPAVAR
measured_endpoint: IC50 (µM)

compound_structure: CC(C)(Oc1ccccc1C(F)(F)F)C(=O)N[C@H]1C2CC3CC1C[C@](S(C)(=O)=O)(C3)C2
censoring_sign: >
number: 100
--
compound_structure: CC(C)(Oc1c(Cl)cc(F)cc1Cl)C(=O)N[C@H]1C2CC3CC1C[C@](S(N)(=O)=O)(C3)C2
censoring_sign: =
number: 9
--
compound_structure: CC(C)(Oc1ccc(F)cc1Cl)C(=O)N[C@H]1C2CC3CC1C[C@](S(=O)(=O)CC(N)=O)(C3)C2
censoring_sign: =
number: 3.3
--
compound_structure: CC(C)(Oc1ccccc1Cl)C(=O)N[C@H]1C2CC3CC1C[C@](S(N)(=O)=O)(C3)C2
censoring_sign: =
number: 5.5

* * *

- target: UniProtKB P28845
- Sequence (P28845 whole entry): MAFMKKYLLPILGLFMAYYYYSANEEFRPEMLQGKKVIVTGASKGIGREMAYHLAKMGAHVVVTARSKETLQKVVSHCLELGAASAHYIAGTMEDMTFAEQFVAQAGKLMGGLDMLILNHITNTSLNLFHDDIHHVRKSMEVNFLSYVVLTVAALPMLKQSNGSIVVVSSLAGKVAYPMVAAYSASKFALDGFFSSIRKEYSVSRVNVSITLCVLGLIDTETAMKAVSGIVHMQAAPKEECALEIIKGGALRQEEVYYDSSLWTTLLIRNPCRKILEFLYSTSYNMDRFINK
- assay_comment: Inhibition of human HSD1 expressed in HEK cells
pIC50: −log10 of the molar value.
Entries and their pIC50

compound_structure: CC(C)(Oc1ccccc1Cl)C(=O)N[C@H]1C2CC3CC1C[C@](S(C)(=O)=O)(C3)C2
pIC50: 6.92
//
compound_structure: COc1cc(F)ccc1OC(C)(C)C(=O)N[C@H]1C2CC3CC1C[C@](S(C)(=O)=O)(C3)C2
pIC50: 6.16
//
compound_structure: CC(C)(C(=O)N[C@H]1C2CC3CC1C[C@](S(N)(=O)=O)(C3)C2)c1ccccc1
pIC50: 6.38
//
compound_structure: CC(C)(Oc1ccccc1Cl)C(=O)N[C@H]1C2CC3CC1C[C@](S(N)(=O)=O)(C3)C2
pIC50: 7.08
//
compound_structure: CC(C)(Oc1cccc(Cl)c1)C(=O)N[C@H]1C2CC3CC1C[C@](S(N)(=O)=O)(C3)C2
pIC50: 6.49
//
compound_structure: CC(C)(Oc1ccccc1C(F)(F)F)C(=O)N[C@H]1C2CC3CC1C[C@](S(C)(=O)=O)(C3)C2
pIC50: 6.92
//
compound_structure: CC(C)(Oc1ccc(F)cc1Cl)C(=O)N[C@H]1C2CC3CC1C[C@](S(=O)(=O)CCCN1CCOCC1)(C3)C2
pIC50: 6.30
//
compound_structure: CC(C)(Oc1ccc(F)cc1Cl)C(=O)N[C@H]1C2CC3CC1C[C@](S(=O)(=O)CC(N)=O)(C3)C2
pIC50: 6.52
//
compound_structure: CC(C)(Oc1c(Cl)cc(F)cc1Cl)C(=O)N[C@H]1C2CC3CC1C[C@](S(N)(=O)=O)(C3)C2
pIC50: 6.72
//
compound_structure: CC(C)(Oc1ccc(F)cc1Cl)C(=O)N[C@H]1C2CC3CC1C[C@](S(N)(=O)=O)(C3)C2
pIC50: 6.90
